# Assay info: compound effects on hepatocellular carcinoma cell viability – HepG2, calcein-AM fluorescence, 48 h, basal, profiling panel (AID 1164); further: test concentration not given here
# Condition notes: higher = more signal
Reported endpoint: z-score

Input: Indicate its recorded z-score; the compound in question is CC(C)C(CO)N1C(=O)[C@@H]2[C@H]3C(=O)OCC=C[C@H]3OC23C=CCN(c2ccc(Cl)cc2)C(=O)[C@@H]13 (stereo partly drawn)
Output: 0.813

Input: Indicate its recorded z-score; the compound in question is `C=CCOC(=O)[C@@H]1[C@H]2C(=O)O[C@H](c3ccccc3)[C@H](c3ccccc3)N2[C@H](c2ccc(OCCOC(=O)[C@@H]3C[C@@H]4C(=O)N[C@@H](CCCC[N+](C)(C)C)C(=O)N4[C@@H]3c3ccc(O)cc3)cc2)[C@@]12C(=O)Nc1ccc(I)cc12`
Output: -0.495

Input: Indicate its recorded z-score; the compound in question is `CC(C)[Si](C#C[Si](C(C)C)(C(C)C)C(C)C)(O[C@H](c1ccccc1)c1cn(Cc2ccccc2)nn1)C(C)C`
Output: 0.732

Input: Indicate its recorded z-score; the compound in question is `CCCC=C(CCC)[C@@H](NP(=O)(c1ccccc1)c1ccccc1)c1ccc(-c2ccccc2)cc1`
Output: -1.47

Input: Indicate its recorded z-score; the compound in question is `COCCCNC(=O)[C@@]1(Sc2ccc(C)cc2)CC(=O)N(C2Cc3ccccc3C2)[C@@H]1c1ccc(CO)cc1`
Output: -0.603

Input: Indicate its recorded z-score; the compound in question is `COC(=O)[C@@]1(Cc2ccc(F)cc2)[C@H]2c3cc(C(=O)N4CCCC4)n(Cc4ccc(C)c(F)c4F)c3C[C@H]2CN1C(=O)c1ccccc1`
Output: 0.97

Input: Indicate its recorded z-score; the compound in question is `CCOC(=O)C1=CC[C@@H](c2ccccc2F)N(S(=O)(=O)c2ccc(C)cc2)[C@H]1c1ccccc1`
Output: -0.244

Input: Indicate its recorded z-score; the compound in question is O=C1C2C=CC(C(O)c3ccco3)N(Nc3ccccc3F)C2C(=O)N1c1ccccc1 (stereo not drawn)
Output: -0.0718

Input: Indicate its recorded z-score; the compound in question is `CCCC=C(CCC)[C@@H](NC(=O)c1cccs1)c1ccc(C(=O)OC)cc1`
Output: -0.125

Input: Indicate its recorded z-score; the compound in question is `NCCCCCCNC(=O)[C@@H]1C[C@@H]2C(=O)N[C@@H](CCCCN)C(=O)N2[C@@H]1c1ccc(O)cc1`
Output: -0.99

Input: Indicate its recorded z-score; the compound in question is C=CCC(OC(C)=O)[C@@H]1[C@@H](N(Cc2ccc(-c3cccc(C(F)(F)F)c3)o2)C(=O)c2ccc(-c3ccccc3)cc2)c2cc(OCCCO)ccc2N1C(=O)Cc1ccc2ccccc2c1 (stereo partly drawn)
Output: 0.374

Input: Indicate its recorded z-score; the compound in question is `Cc1ccc(S[C@]2(C(=O)NCc3ccccc3)CC(=O)N(C3CCCCC3)[C@@H]2c2ccc(CO)cc2I)cc1`
Output: 0.398

Input: Indicate its recorded z-score; the compound in question is CC(C)N1CC=CC23O[C@@H]4C=CCCOC(=O)C4[C@H]2C(=O)N(CCCO)[C@@H]3C1=O (stereo partly drawn)
Output: 0.292

Input: Indicate its recorded z-score; the compound in question is `CC(C)=C1C(=O)C(c2ccccc2)=C2CN3C(=O)N(CCc4ccccc4)C(=O)[C@]3(Cc3ccc(C(F)(F)F)cc3)[C@H]21`
Output: -0.232

Input: Indicate its recorded z-score; the compound in question is `COC(=O)[C@@H]1N=C(c2ccc(OCCCO)cc2)O[C@@H]1c1ccccc1`
Output: -0.677

Input: Indicate its recorded z-score; the compound in question is `C#CCN([C@@H](Cc1ccccc1)C(=O)OC)[C@@H](/C=C/C1CC1)[C@H](O)Cc1ccccc1`
Output: -1.38

Input: Indicate its recorded z-score; the compound in question is `[N-]=[N+]=NCc1ccccc1[C@@H]1OC(c2ccc(OCCCO)cc2)=N[C@]1(CCS(=O)(=O)c1ccccc1)C(=O)O`
Output: 1.05

Input: Indicate its recorded z-score; the compound in question is COc1cc(NN2C(C(O)c3cc(OC)c(OC)c(OC)c3)C=CC3C(=O)N(C)C(=O)C32)cc(OC)c1OC (stereo not drawn)
Output: -0.122
